Source: the supplement of paper PMC11246515

Protocol: total protein half-life in vivo (active degradation + dilution); higher = more stable protein
Experimental Setup: wild type E. coli NCM3722; growth: C-lim chemostat; doubling time 12 h
1.0 means recorded total protein half-life in vivo is 7 h or above; 0.0 means it is below 7 h.

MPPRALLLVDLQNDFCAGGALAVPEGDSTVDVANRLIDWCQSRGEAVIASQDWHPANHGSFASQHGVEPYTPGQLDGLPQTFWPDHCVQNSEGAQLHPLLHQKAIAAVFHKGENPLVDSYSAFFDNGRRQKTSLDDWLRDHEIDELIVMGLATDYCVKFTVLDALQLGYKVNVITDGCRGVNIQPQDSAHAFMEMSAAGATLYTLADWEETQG
1.0
MNALLSNPFKERLRKGEVQIGLWLSSTTAYMAEIAATSGYDWLLIDGEHAPNTIQDLYHQLQAVAPYASQPVIRPVEGSKPLIKQVLDIGAQTLLIPMVDTAEQARQVVSATRYPPYGERGVGASVARAARWGRIENYMAQVNDSLCLLVQVESKTALDNLDEILDVEGIDGVFIGPADLSASLGYPDNAGHPEVQRIIETSIRRIRAAGKAAGFLAVAPDMAQQCLAWGANFVAVGVDTMLYSDALDQRLAMFKSGKNGPRIKGSY
0.0
MLNIVLYEPEIPPNTGNIIRLCANTGFRLHIIEPMGFAWDDKRLRRAGLDYHEFTAVTRHHDYRAFLEAENPQRLFALTTKGTPAHSAVSYQDGDYLMFGPETRGLPASILDALPAEQKIRIPMVPDSRSMNLSNAVSVVVYEAWRQLGYPGAVLRD [P0AGJ7]
1.0
MKNQAHPIIVVKRRKAKSHGAAHGSWKIAYADFMTAMMAFFLVMWLISISSPKELIQIAEYFRTPLATAVTGGDRISNSESPIPGGGDDYTQSQGEVNKQPNIEELKKRMEQSRLRKLRGDLDQLIESDPKLRALRPHLKIDLVQEGLRIQIIDSQNRPMFRTGSADVEPYMRDILRAIAPVLNGIPNRISLSGHTDDFPYASGEKGYSNWELSADRANASRRELMVGGLDSGKVLRVVGMAATMRLSDRGPDDAVNRRISLLVLNKQAEQAILHENAESQNEPVSALEKPEVAPQVSVPTMPSAEPR [P0AF06]
0.0
MSHLDNGFRSLTLQRFPATDDVNPLQAWEAADEYLLQQLDDTEIRGPVLILNDAFGALSCALAEHKPYSIGDSYISELATRENLRLNGIDESSVKFLDSTADYPQQPGVVLIKVPKTLALLEQQLRALRKVVTSDTRIIAGAKARDIHTSTLELFEKVLGPTTTTLAWKKARLINCTFNEPQLADAPQTVSWKLEGTDWTIHNHANVFSRTGLDIGARFFMQHLPENLEGEIVDLGCGNGVIGLTLLDKNPQAKVVFVDESPMAVASSRLNVETNMPEALDRCEFMINNALSGVEPFRFNAVLCNPPFHQQHALTDNVAWEMFHHARRCLKINGELYIVANRHLDYFHKLKKIFGNCTTIATNNKFVVLKAVKLGRRR
1.0
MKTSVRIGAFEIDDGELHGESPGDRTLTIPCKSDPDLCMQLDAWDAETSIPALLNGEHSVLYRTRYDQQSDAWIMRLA
0.0
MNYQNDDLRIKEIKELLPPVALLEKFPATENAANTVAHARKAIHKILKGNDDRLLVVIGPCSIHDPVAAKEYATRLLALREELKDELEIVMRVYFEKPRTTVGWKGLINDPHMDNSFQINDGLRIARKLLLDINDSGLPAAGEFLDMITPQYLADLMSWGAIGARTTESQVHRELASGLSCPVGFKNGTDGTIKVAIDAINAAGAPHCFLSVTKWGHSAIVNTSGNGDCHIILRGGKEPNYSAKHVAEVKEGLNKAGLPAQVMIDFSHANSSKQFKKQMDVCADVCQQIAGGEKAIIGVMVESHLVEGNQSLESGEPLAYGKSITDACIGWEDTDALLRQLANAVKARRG [P0AB91]
1.0
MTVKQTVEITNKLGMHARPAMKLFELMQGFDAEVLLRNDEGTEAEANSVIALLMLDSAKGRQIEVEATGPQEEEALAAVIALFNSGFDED [P0A9N0]
0.0
MISSLWIAKTGLDAQQTNMDVIANNLANVSTNGFKRQRAVFEDLLYQTIRQPGAQSSEQTTLPSGLQIGTGVRPVATERLHSQGNLSQTNNSKDVAIKGQGFFQVMLPDGSSAYTRDGSFQVDQNGQLVTAGGFQVQPAITIPANALSITIGRDGVVSVTQQGQAAPVQVGQLNLTTFMNDTGLESIGENLYTETQSSGAPNESTPGLNGAGLLYQGYVETSNVNVAEELVNMIQVQRAYEINSKAVSTTDQMLQKLTQL [P0ABX5]
0.0
MKKNRAFLKWAGGKYPLLDDIKRHLPKGECLVEPFVGAGSVFLNTDFSRYILADINSDLISLYNIVKMRTDEYVQAARELFVPETNCAEVYYQFREEFNKSQDPFRRAVLFLYLNRYGYNGLCRYNLRGEFNVPFGRYKKPYFPEAELYHFAEKAQNAFFYCESYADSMARADDASVVYCDPPYAPLSATANFTAYHTNSFTLEQQAHLAEIAEGLVERHIPVLISNHDTMLTREWYQRAKLHVVKVRRSISSNGGTRKKVDELLALYKPGVVSPAKK [P0AEE8]
1.0

Now for a further sequence.
stdin: Textbook exercise: given the entry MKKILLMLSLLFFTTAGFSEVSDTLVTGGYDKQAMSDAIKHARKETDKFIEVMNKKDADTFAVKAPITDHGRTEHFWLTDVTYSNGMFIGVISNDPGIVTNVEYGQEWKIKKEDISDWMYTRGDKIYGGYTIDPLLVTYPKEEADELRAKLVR , state whether its total protein half-life in vivo is greater than or equal to 7 h.
stdout: 0.0

###

Protocol: total protein half-life in vivo (active degradation + dilution); higher = more stable protein
Experimental Setup: wild type E. coli NCM3722; growth: C-lim chemostat; doubling time 3 h
total protein half-life in vivo values by entry
The figure you give is taken to be in h; do not add the unit.

MKTLIVSTVLAFITFSAQAAAFQVTSNEIKTGEQLTTSHVFSGFGCEGGNTSPSLTWSGVPEGTKSFAVTVYDPDAPTGSGWWHWTVVNIPATVTYLPVDAGRRDGTKLPTGAVQGRNDFGYAGFGGACPPKGDKPHHYQFKVWALKTEKIPVDSNSSGALVGYMLNANKIATAEITPVYEIK
2.24
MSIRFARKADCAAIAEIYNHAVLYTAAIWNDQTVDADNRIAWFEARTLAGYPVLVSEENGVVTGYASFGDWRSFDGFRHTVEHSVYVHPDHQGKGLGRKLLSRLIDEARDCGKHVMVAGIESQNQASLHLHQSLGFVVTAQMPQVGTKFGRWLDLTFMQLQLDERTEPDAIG
2.77

Now for a further sequence.
# sequence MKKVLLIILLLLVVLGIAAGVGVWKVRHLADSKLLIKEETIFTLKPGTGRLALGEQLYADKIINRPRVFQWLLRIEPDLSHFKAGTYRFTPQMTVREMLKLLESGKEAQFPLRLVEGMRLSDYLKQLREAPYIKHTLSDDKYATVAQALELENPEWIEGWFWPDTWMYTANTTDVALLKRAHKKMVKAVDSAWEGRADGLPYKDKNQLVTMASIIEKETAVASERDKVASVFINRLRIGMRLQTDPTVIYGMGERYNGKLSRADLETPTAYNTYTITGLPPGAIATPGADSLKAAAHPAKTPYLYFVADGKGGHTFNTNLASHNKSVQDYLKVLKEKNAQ ; its total protein half-life in vivo = 3.49

###

Protocol: total protein half-life in vivo (active degradation + dilution); higher = more stable protein
Experimental Setup: E. coli NCM3722 delta-smpB; growth: N-lim chemostat; doubling time 6 h
Endpoint: total protein half-life in vivo (h)
Numbers only; they are read as h.

Some entries whose results are on file:
MKRVLFFLLMIFVSFGVIADCEIQAKDHDCFTIFAKGTIFSAFPVLNNKAMWRWYQNEDIGEYYWQTELGTCKNNKFTPSGARLLIRVGSLRLNENHAIKGTLQELINTAEKTAFLGDRFRSYIRAGIYQKKSSDPVQLLAVLDNSIMVKYFKDEKPTYARMTAHLPNKNESYECLIKIQHELIRSEEK
1.13
MSNKNVNVRKSQEITFCLLAGILMFMAMMVAGRAEAGVALGATRVIYPAGQKQEQLAVTNNDENSTYLIQSWVENADGVKDGRFIVTPPLFAMKGKKENTLRILDATNNQLPQDRESLFWMNVKAIPSMDKSKLTENTLQLAIISRIKLYYRPAKLALPPDQAAEKLRFRRSANSLTLINPTPYYLTVTELNAGTRVLENALVPPMGESTVKLPSDAGSNITYRTINDYGALTPKMTGVME
5.38
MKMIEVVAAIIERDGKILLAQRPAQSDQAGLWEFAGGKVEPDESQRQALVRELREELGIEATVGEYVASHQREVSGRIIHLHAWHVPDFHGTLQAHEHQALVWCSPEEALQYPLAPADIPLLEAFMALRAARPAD
4.07

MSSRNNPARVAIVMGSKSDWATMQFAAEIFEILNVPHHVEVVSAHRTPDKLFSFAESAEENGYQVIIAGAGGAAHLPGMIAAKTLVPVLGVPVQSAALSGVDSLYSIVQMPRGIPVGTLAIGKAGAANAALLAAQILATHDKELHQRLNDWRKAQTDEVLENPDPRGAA [P0AG18] has a reported total protein half-life in vivo of 4.71

Value of measured total protein half-life in vivo for the entry MLNKLSLLLKDAGISLTDHQKNQLIAYVNMLHKWNKAYNLTSVRDPNEMLVRHILDSIVVAPYLQGERFIDVGTGPGLPGIPLSIVRPEAHFTLLDSLGKRVRFLRQVQHELKLENIEPVQSRVEEFPSEPPFDGVISRAFASLNDMVSWCHHLPGEQGRFYALKGQMPEDEIALLPEEYQVESVVKLQVPALDGERHLVVIKANKI [P0A6U5] : 4.48

Entry MENKYSRLQISIHWLVFLLVIAAYCAMEFRGFFPRSDRPLINMIHVSCGISILVLMVVRLLLRLKYPTPPIIPKPKPMMTGLAHLGHLVIYLLFIALPVIGLVMMYNRGNPWFAFGLTMPYASEANFERVDSLKSWHETLANLGYFVIGLHAAAALAHHYFWKDNTLLRMMPRKRS [P0ABE5] — recorded total protein half-life in vivo = 5.9

Value of measured total protein half-life in vivo for the entry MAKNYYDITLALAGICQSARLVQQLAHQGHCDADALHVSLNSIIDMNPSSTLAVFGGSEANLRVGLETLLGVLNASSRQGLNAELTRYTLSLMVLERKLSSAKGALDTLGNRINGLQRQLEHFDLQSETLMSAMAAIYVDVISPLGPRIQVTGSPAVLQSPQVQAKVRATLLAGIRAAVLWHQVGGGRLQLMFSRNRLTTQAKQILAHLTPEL : 6

Reported total protein half-life in vivo for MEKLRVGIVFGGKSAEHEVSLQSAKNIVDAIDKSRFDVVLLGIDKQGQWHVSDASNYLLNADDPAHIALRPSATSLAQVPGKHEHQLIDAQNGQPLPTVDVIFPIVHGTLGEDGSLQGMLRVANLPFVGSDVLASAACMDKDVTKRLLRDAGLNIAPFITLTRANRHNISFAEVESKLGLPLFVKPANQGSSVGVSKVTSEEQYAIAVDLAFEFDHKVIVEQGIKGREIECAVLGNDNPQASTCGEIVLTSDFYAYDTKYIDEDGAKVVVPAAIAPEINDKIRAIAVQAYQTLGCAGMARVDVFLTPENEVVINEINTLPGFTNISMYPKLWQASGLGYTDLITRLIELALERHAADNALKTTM [P0A6J8] was 4.9

get_value(item= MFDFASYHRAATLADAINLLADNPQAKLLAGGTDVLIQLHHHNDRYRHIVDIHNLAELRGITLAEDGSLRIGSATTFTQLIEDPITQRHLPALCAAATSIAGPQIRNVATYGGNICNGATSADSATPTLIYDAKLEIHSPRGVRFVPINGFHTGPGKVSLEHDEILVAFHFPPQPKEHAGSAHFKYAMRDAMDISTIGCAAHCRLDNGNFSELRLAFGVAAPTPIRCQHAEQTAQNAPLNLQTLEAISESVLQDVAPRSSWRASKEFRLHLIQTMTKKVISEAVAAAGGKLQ , readout=total protein half-life in vivo) returns 2.38

Documented total protein half-life in vivo of MASQLTDAFARKFYYLRLSITDVCNFRCTYCLPDGYKPSGVTNKGFLTVDEIRRVTRAFARLGTEKVRLTGGEPSLRRDFTDIIAAVRENDAIRQIAVTTNGYRLERDVASWRDAGLTGINVSVDSLDARQFHAITGQDKFNQVMAGIDAAFEAGFEKVKVNTVLMRDVNHHQLDTFLNWIQHRPIQLRFIELMETGEGSELFRKHHISGQVLRDELLRRGWIHQLRQRSDGPAQVFCHPDYAGEIGLIMPYEKDFCATCNRLRVSSIGKLHLCLFGEGGVNLRDLLEDDTQQQALEARISAALREKKQTHFLHQNNTGITQNLSYIGG : 0.911

Record MAKYNEKELADTSKFLSFVLRHKPEAIGIVLDREGWADIDKLILCAQKAGKRLTRALLDTVVATSDKKRFSYSSDGRCIRAVQGHSTSQVAISFAEKTPPQFLYHGTASRFLDEIKKQGLIAGERHYVHLSADEATARKVGARHGSPVILTVKAQEMAKRGLPFWQAENGVWLTSTVAVEFLEW . Reported total protein half-life in vivo: 1.27

// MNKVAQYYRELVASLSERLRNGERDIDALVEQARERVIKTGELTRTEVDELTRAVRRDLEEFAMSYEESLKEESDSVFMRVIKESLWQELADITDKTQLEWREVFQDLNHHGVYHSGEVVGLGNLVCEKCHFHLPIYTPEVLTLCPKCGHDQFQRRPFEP [P0AAT9] : total protein half-life in vivo value = 4.05
